- System: Caco-2
- protocol.notes: cell viability relative to DMSO; higher = less toxic
- condition.label: 72 h; 10000 nM

compound	system	cell viability / %
CC1(c2ccccc2)OC(C(=O)O)=CC1=O (configuration not stated) [acifran]	Caco-2	98.9
CO/N=C(\C(=O)N[C@@H]1C(=O)N2C(C(=O)O)=C(CSc3nc(C)c(CC(=O)O)s3)CS[C@H]12)c1csc(N)n1 [cefodizime]	Caco-2	89.3
Nc1ccc2cc3ccc(N)cc3nc2c1 [proflavine-hemisulfate]	Caco-2	49.3
CN1C(=O)N(c2cc(Cl)cc(Cl)c2)C(=O)[C@]12CN(Cc1cc(C(=O)O)cs1)C[C@H]2c1ccc(C#N)cc1	Caco-2	93.7
CCc1c(O)cc(O)c(C(=O)c2ccc(OCCN3CCOCC3)c(OC)c2)c1CC(=O)N(CCOC)CCOC [KW-2478]	Caco-2	46.5
COCc1nnc(N2CC(Oc3ccc(F)cc3Cl)C2)n1-c1ccc(OC)nc1	Caco-2	97.5
CCCCCCCC/C=C/C(=O)O [trans-2-undecenoic-acid]	Caco-2	98.9
CC(C)C[C@@H](C(=O)N[C@@H](Cc1ccc(OCc2ccccc2)cc1)C(=O)NC(C)(C)C)N(C)Cc1ccc(C(C)(C)C)cc1	Caco-2	87.5
CC(C)n1cnc2c(NCCc3ccc(O)cc3)nc(-c3csc4ccccc34)nc21 [stemregenin-1]	Caco-2	54
C[C@H]1C[C@H]2[C@@H]3CCC4=CC(=O)C=C[C@]4(C)[C@H]3C(=O)C[C@]2(C)[C@@]1(O)C(=O)CO [Betapar (Meprednisone)]	Caco-2	94.8
COc1ccccc1N1CCN(CCCCN2C(=O)CCC2=O)CC1 [MM77]	Caco-2	106
Nc1ncn([C@H]2C[C@H](O)[C@@H](CO)O2)c(=O)n1 [decitabine]	Caco-2	88.4
CCOC(=O)c1ccccc1OC(=O)CCCCCCCC(=O)Oc1ccccc1C(=O)OCC [TU-2100]	Caco-2	100
Cc1cc(OCc2nnc(SC3CCCC3)n2-c2cccnc2)ccc1-c1ccc(S(C)(=O)=O)cc1 [NMS-873]	Caco-2	17.8
CC1=CC(=C(c2ccc(N)cc2)c2ccc(N)cc2)C=CC1=N [basic-fuchsin]	Caco-2	18.6
CC1(C)S[C@@H]2[C@H](NC(=O)[C@H](NC(=O)N3CCNC3=O)c3ccccc3)C(=O)N2[C@H]1C(=O)O [azlocillin]	Caco-2	98.1
Cc1c(F)cc(C(=O)NC2CC2)cc1-c1ccc(C(=O)NCC(C)(C)C)cn1 [losmapimod]	Caco-2	80.6
